- assayed-system: TEAD1 YAP50-100 (Homo sapiens (Human))
- Sequence (P28347 209-426): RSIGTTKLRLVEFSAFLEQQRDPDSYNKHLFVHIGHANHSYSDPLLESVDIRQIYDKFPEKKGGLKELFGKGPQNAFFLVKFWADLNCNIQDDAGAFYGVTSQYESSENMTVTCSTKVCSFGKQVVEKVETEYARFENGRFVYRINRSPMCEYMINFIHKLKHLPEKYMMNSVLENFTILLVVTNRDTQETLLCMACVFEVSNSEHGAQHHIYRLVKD
- protocol-description: TEAD-YAP protein-protein interaction HTRF assay
- test-settings: TEAD1 YAP50-100 HTRF combined EC50, 30 mins incubation with compound
- Description: Purified His-tagged TEAD protein (YAP Binding Domain, amino acids 217-447) is pre-incubated with Europium labelled anti-His antibody tracer (Perkin Elmer Cat #AD0110). […] After 60 minutes, the plate is read on a plate reader using TR-FRET mode with wavelengths of 665 nm/615 nm. […] The potency of compounds as YAP:TEAD or TAZ:TEAD protein-protein interaction (PPi) inhibitors is determined by an IC50 or EC50 value generated using a non-linear four parameter curve fit. […]
pEC50: −log10 of the molar value.
Exercise: for every item that follows, state its recorded pEC50.

-- ask What value of measured pEC50 is listed for C=C(CNc1cc(-c2ccc(OC(F)(F)F)cc2)c2ncsc2c1C#N)C(N)=O ?
-- reply < 4.30

-- ask // repeat for C=C(CNc1cc(-c2ccc(C(C)C)cc2)c2c(c1C#N)CCO2)C(=O)NC and report
-- reply < 4.30

-- ask // repeat for C=C(CNc1cc(-c2ccc(C(C)C)cc2)c2c(c1C#N)CCO2)C(=O)OC and report
-- reply < 4.30

====

Exercise: for every item that follows, state its recorded IC50.
- assayed-system: TEAD4 (Homo sapiens (Human))
- Sequence (Q15561 whole entry, species assumed): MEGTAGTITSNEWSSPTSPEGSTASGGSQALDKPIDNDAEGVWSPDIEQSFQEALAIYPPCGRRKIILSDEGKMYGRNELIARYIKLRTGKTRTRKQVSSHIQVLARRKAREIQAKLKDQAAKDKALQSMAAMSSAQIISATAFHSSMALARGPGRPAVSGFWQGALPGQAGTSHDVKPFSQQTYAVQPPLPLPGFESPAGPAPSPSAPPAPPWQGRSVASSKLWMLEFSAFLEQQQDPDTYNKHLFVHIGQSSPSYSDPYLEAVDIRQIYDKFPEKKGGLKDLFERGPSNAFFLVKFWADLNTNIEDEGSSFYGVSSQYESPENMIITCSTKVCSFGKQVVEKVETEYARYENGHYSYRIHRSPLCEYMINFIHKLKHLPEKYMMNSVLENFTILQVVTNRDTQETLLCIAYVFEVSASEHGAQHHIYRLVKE
- protocol-description: TEAD lipid pocket TR-FRET (Lipid HTRF) probe competition assay
- Format: binding
- test-settings: 30 mins incubation with compound; read-out: Lipid HTRF TEAD4 IC50
Give just the numeric value; nM need not be written.

-- ask What value of measured IC50 is listed for C=C(CNc1cc(-c2ccc(C(C)(F)F)cc2)c2c(c1C#N)CCO2)C(=O)O ?
-- reply 110

-- ask // repeat for C=C(CNc1cc(-c2ccc(C(C)C)cc2F)c2c(c1C#N)CCO2)C(=O)O and report
-- reply 30

-- ask // repeat for C=C(CNc1nc(-c2ccc(C(C)C)cc2)c2c(c1C#N)CCO2)C(=O)O and report
-- reply 50

-- ask // repeat for C=C(CNc1cc(-c2ccc(C(F)(F)F)cc2)c2c(c1C#N)CCO2)C(=O)O and report
-- reply 110

====

- assayed-system: TEAD1 (Homo sapiens (Human))
- Sequence (P28347 whole entry, species assumed): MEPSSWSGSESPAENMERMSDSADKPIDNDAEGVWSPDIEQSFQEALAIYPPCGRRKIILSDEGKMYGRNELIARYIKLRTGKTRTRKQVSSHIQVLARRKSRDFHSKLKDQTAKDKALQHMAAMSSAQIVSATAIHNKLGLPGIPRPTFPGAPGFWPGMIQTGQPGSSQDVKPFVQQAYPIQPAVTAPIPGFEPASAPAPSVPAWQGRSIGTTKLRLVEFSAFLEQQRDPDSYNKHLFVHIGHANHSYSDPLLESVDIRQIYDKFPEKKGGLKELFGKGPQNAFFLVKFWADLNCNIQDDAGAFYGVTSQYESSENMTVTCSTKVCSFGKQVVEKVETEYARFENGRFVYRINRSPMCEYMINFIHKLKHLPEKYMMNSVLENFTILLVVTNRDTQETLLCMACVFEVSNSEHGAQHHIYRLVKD
- protocol-description: TEAD lipid pocket TR-FRET (Lipid HTRF) probe competition assay
- Assay type: binding
- test-settings: 4 hours incubation with compound; read-out: Lipid HTRF TEAD1 IC50
Exercise: for every item that follows, state its recorded pIC50.
Scale: pIC50 equals -log10([C]), with [C] in mol/L.

-- ask What value of measured pIC50 is listed for [2H]C1([2H])COc2c(-c3ccc(C(C)C)cc3)cc(NCC(=C)C(N)=O)c(C#N)c21 ?
-- reply 6.74

-- ask // repeat for C=C(CNc1cc(-c2ccc(OC(F)(F)F)cc2)c2c(c1C#N)CCO2)C(=O)N(C)O and report
-- reply 6.40

-- ask // repeat for C=C(CNc1cc(-c2ncc(C(C)C)s2)c2c(c1C#N)CCO2)C(=O)NO and report
-- reply 6.51
